# target-or-test-system: Hypoxia-inducible factor 1-alpha (Homo sapiens) (UniProt Q16665)
# Sequence (Q16665 whole entry, looked up): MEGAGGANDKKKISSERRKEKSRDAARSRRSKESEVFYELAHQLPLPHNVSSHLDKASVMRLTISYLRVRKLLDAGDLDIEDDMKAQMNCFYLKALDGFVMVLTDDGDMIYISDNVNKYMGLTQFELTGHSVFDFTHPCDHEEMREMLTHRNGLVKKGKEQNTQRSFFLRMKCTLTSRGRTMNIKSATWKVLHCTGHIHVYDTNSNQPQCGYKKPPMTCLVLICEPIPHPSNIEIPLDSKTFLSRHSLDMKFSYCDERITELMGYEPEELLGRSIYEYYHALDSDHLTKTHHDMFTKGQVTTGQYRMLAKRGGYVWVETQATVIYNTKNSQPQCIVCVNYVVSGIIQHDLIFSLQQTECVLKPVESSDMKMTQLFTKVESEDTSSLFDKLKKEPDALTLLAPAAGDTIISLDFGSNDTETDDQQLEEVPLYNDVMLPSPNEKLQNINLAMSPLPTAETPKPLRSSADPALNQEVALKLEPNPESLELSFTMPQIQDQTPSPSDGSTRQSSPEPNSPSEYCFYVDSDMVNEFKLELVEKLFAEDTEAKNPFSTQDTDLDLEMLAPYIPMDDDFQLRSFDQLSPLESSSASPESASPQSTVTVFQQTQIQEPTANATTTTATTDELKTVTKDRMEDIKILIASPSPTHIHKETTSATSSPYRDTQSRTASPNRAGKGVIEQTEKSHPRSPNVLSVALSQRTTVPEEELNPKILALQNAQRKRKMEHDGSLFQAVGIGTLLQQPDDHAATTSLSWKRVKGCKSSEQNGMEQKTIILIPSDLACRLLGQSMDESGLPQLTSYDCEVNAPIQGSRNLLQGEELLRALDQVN
# experimental-details: HIF1A nuclear translocation activators in U2OS – imaging, U2OS GFP-HIF1alpha, high content, dry powder, set 2, orthogonal assay for HIF activator project, dose response (AID 493225)
# conditions: U2OS GFP-HIF1alpha nuclear intensity imaging
Calls of active or inactive are those of the source.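 The calls were made as follows: active = fitted curve reaching 40% activation, where positive control equals 100, at or below the top valid dose; inconclusive = flat curve between 30 and 70% activation, or a poor fit; inactive = the rest, including activity in the opposite direction.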
Use one of these outcomes when replying: active, inactive

Previously resolved entries follow.
N#CC1(c2ccccc2)CCN(Cc2ccc(O)c3ncccc23)CC1; active
OCC1CCN(c2nc(-c3ccccn3)nnc2-c2ccccc2)CC1; active
C[C@H](Nc1nc(-c2ccccn2)nnc1-c1ccccc1)C1CCCCC1; active
c1ccc(-c2nnc(-c3ccccn3)nc2N2CCC(c3ccccc3)C2)cc1 (stereo unspecified); active
C[C@@H](Nc1nc(-c2ccccn2)nnc1-c1ccccc1)c1ccccc1; active
OCC1CCN(Cc2ccc(O)c3ncccc23)CC1; active
Cc1cccc(CNc2nc(-c3ccccn3)nnc2-c2ccccc2)c1; active
CN1CCN(c2nc(-c3ccccn3)nnc2-c2ccccc2)CC1; active
c1ccc(-c2nnc(Nc3nc(-c4ccccn4)nnc3-c3ccccc3)s2)cc1; active
CC1CN(Cc2ccc(O)c3ncccc23)CC(C)O1 (stereo unspecified); active

Lookup: // return assay outcome for c1ccc(-c2nnc(-c3ccccn3)nc2NCCN2CCOCC2)cc1
Found: active

Lookup: Please do the same for Cc1ccc(NC(=O)c2cc(-c3ccccc3)on2)cn1 as well.
Found: inactive

Lookup: Another: CCCCNC(=O)c1cc(-c2ccccc2)on1
Found: active

Lookup: Then this compound: Cc1cccc(Nc2nc(-c3ccccn3)nnc2-c2ccccc2)n1
Found: active

Lookup: Now the compound c1ccc(-c2nnc(-c3ccccn3)nc2NCC2CCOCC2)cc1
Found: active

Lookup: For C[C@@H](Nc1nc(-c2ccccn2)nnc1-c1ccccc1)C1CCCCC1 then?
Found: active

Lookup: Then what about the compound O=C(NCCN1CCOCC1)c1cc(-c2ccccc2)on1 ?
Found: active

Lookup: Proceed to c1ccc(-c2cnc(Nc3nc(-c4ccccn4)nnc3-c3ccccc3)s2)cc1
Found: active

Lookup: Proceed to OCCCNc1nc(-c2ccccn2)nnc1-c1ccccc1
Found: active

Lookup: Now the same for COc1ccccc1N1CCN(Cc2ccc(O)c3ncccc23)CC1
Found: active

Lookup: Also Cc1ccccc1CNc1nc(-c2ccccn2)nnc1-c1ccccc1 ?
Found: active

Lookup: Another compound to check: CC(C)(C)OC(=O)N1CCN(Cc2ccc(O)c3ncccc23)CC1
Found: active

Lookup: Now consider c1ccc(-c2nnc(-c3ccccn3)nc2N2CCN(c3ccncc3)CC2)cc1 .
Found: active

Lookup: Try this compound next: O=C(NCCCCO)c1cc(-c2ccccc2)on1
Found: active

---

# reported activation; entries follow
# target-or-test-system: Hypoxia-inducible factor 1-alpha (Homo sapiens) (UniProt Q16665)
# experimental-details: HIF1A nuclear translocation activators in U2OS – imaging, U2OS GFP-HIF1alpha, high content, dry powder, set 2, orthogonal assay for HIF activator project, dose response (AID 493225)
# conditions: U2OS GFP-HIF1alpha nuclear intensity imaging; at 38 µM (top of the series)
Give just the numeric value; % need not be written.

Completed entries (count: 2):
O=C(Nc1nnc(-c2ccccc2)s1)c1cc(-c2ccccc2)on1; -3.81
O=C(NCc1ccccc1)c1cc(-c2ccccc2)on1; 5.64

Consider the record given below.
Lookup: Lab note: need activation with Hypoxia-inducible factor 1-alpha (Homo sapiens) (UniProt Q16665) for entry Cc1ccc(CNC(=O)c2cc(-c3ccccc3)on2)cc1 , please look it up.
Found: 7.41
